Provide the reported zone of inhibition at 5000 µg/mL of each item.
Test system: Aspergillus flavus
Assay: Antifungal activity against Aspergillus flavus 3372 at 5 mg/mL after 48 hrs
Assay type: functional
Conditions: Aspergillus flavus, 3372, 48 h; read-out: DIZ

query: Item COc1ccc(/N=N/c2c(N)n3nc(S(N)(=O)=O)sc3nc2=O)cc1 : provide zone of inhibition at 5000 µg/mL
result: 5 mm

query: Item COc1ccc2c(c1)CCC1=C2N=C2SC(S(N)(=O)=O)=NN2C1c1ccc(Br)cc1 (stereo unspecified) : provide zone of inhibition at 5000 µg/mL
result: < 2 mm

query: Item NS(=O)(=O)C1=NN2CC(=O)N=C2S1 : provide zone of inhibition at 5000 µg/mL
result: < 2 mm

Field: zone of inhibition at 5000 µg/mL. Fill in for each record below.
1. COc1ccc2c(c1)CCC1=C2N=C2SC(S(N)(=O)=O)=NN2C1c1ccc(Cl)cc1 (stereo unspecified)
2. COc1ccc(C2C(C#N)C(=O)N=C3SC(S(N)(=O)=O)=NN32)cc1OC (stereo unspecified)
3. NS(=O)(=O)C1=NN2C(=O)c3ccccc3NC(c3ccsc3)/N=C\2S1 (stereo unspecified)
4. N=c1cc(N)n2nc(S(N)(=O)=O)sc2n1

result:
1: < 2 mm; 2: < 2 mm; 3: < 2 mm; 4: < 2 mm

###

Provide the reported mortality at 24 h, 500 ug/mL of each item.
Test: Toxicity against brine shrimp larvae assessed as mortality at 500 ug/mL after 24 hrs by binocular microscopic analysis relative to control
Type: organism-based
Conditions: artemia salina, in vivo
One number for each entry, in %.

Previously resolved entries follow.
query: Item N#Cc1cnc2sc(S(N)(=O)=O)nn2c1=O : provide mortality at 24 h, 500 ug/mL
result: 83.3

query: Item CN(C)c1ccc(C2C(C#N)C(=O)N=C3SC(S(N)(=O)=O)=NN32)cc1 (centres undefined) : provide mortality at 24 h, 500 ug/mL
result: 96.6

query: Item NS(=O)(=O)C1=NN2C(=NC(=O)/C2=C\c2ccc(Br)cc2)S1 : provide mortality at 24 h, 500 ug/mL
result: 60

query: Item CCOC(=O)C1C(=O)N=C2SC(S(N)(=O)=O)=NN2C1c1ccc(Cl)cc1 (centres undefined) : provide mortality at 24 h, 500 ug/mL
result: 70

query: Item N#CC1C(=O)N=C2SC(S(N)(=O)=O)=NN2C1c1ccc(Cl)cc1 (centres undefined) : provide mortality at 24 h, 500 ug/mL
result: 50

Field: mortality at 24 h, 500 ug/mL. Fill in for each record below.
1. COc1ccc(/C=C2\C(=O)N=C3SC(S(N)(=O)=O)=NN32)cc1OC
2. Nc1c(/N=N/c2ccc(Br)cc2)c(=O)nc2sc(S(N)(=O)=O)nn12
3. COc1ccc(/N=N/c2c(N)n3nc(S(N)(=O)=O)sc3nc2=O)cc1
4. NS(=O)(=O)C1=NN2CCC(=O)N=C2S1

result:
1: 86.6; 2: 80; 3: 93.3; 4: 96.6

###

Test system: Aspergillus fumigatus
Assay: Antifungal activity against Aspergillus fumigatus Af293 at 5 mg/mL after 48 hrs
Format: functional
Details: Af293, 48 h, read-out: DIZ
Provide the reported zone of inhibition at 5000 µg/mL of each item.

query: Item CCOC(=O)C1C(=O)N=C2SC(S(N)(=O)=O)=NN2C1c1ccc(N(C)C)cc1 (stereo unspecified) : provide zone of inhibition at 5000 µg/mL
result: 4 mm

query: Item COc1ccc(/C=C2\C(=O)N=C3SC(S(N)(=O)=O)=NN32)cc1OC : provide zone of inhibition at 5000 µg/mL
result: 16 mm

query: Item NS(=O)(=O)C1=NN2CCC(=O)N=C2S1 : provide zone of inhibition at 5000 µg/mL
result: 8 mm

Field: zone of inhibition at 5000 µg/mL. Fill in for each record below.
1. NS(=O)(=O)C1=NN2C(=O)c3ccccc3NC(c3ccsc3)/N=C\2S1 (stereo unspecified)
2. COc1ccc(/N=N/c2c(N)n3nc(S(N)(=O)=O)sc3nc2=O)cc1
3. Nc1c(/N=N/c2ccccc2)c(=O)nc2sc(S(N)(=O)=O)nn12
4. NS(=O)(=O)C1=NN2CC(=O)N=C2S1
5. COc1ccc(C2C(C#N)C(=O)N=C3SC(S(N)(=O)=O)=NN32)cc1OC (stereo unspecified)

result:
< 2 mm
< 2 mm
< 2 mm
< 2 mm
8 mm

###

Test: Toxicity against brine shrimp larvae assessed as mortality at 1000 ug/mL after 24 hrs by binocular microscopic analysis relative to control
Assay type: organism-based
Conditions: artemia salina, in vivo
Assay Endpoint: mortality at 24 h, 1000 ug/mL (%)
Give bare numbers, in %.

Previously resolved entries follow.
query: Item CCOC(=O)C1C(=O)N=C2SC(S(N)(=O)=O)=NN2C1c1ccc(OC)c(OC)c1 (centres undefined) : provide mortality at 24 h, 1000 ug/mL
result: 93.3

query: Item NS(=O)(=O)C1=NN2C(=O)c3ccccc3NC(c3ccsc3)/N=C\2S1 (centres undefined) : provide mortality at 24 h, 1000 ug/mL
result: 86.6

Field: mortality at 24 h, 1000 ug/mL. Fill in for each record below.
1. Nc1c(/N=N/c2ccccc2)c(=O)nc2sc(S(N)(=O)=O)nn12
2. N#Cc1cnc2sc(S(N)(=O)=O)nn2c1=N
3. COc1ccc(/N=N/c2c(N)n3nc(S(N)(=O)=O)sc3nc2=O)cc1

result:
1: 96.6; 2: 96.6; 3: 100

Field: mortality at 24 h, 1000 ug/mL. Fill in for each record below.
1. Nc1c(/N=N/c2ccc(Br)cc2)c(=O)nc2sc(S(N)(=O)=O)nn12
2. CCOC(=O)C1C(=O)N=C2SC(S(N)(=O)=O)=NN2C1c1ccc(N(C)C)cc1 (centres undefined)
3. N#Cc1cnc2sc(S(N)(=O)=O)nn2c1=O
4. NS(=O)(=O)C1=NN2C(=NC(=O)/C2=C\c2ccc(Br)cc2)S1

result:
90
100
96.6
80

###

Assay: Toxicity against brine shrimp larvae assessed as mortality at 10 ug/mL after 24 hrs by binocular microscopic analysis relative to control
Type: organism-based
Details: artemia salina, in vivo
Field: class. Source value: mortality at 24 h, 10 ug/mL. Ranges: band A = under 50%, band B = from 50% up to 70%, band C = 70% and over

Sample answers from the record:
query: In plain terms, what class is N#CC1C(=O)N=C2SC(S(N)(=O)=O)=NN2C1c1ccc(Cl)cc1 (centres undefined) ?
result: band A

query: In plain terms, what class is Nc1c(/N=N/c2ccc(Br)cc2)c(=O)nc2sc(S(N)(=O)=O)nn12 ?
result: band A

query: In plain terms, what class is NS(=O)(=O)C1=NN2C(=NC(=O)/C2=C\c2ccc(Br)cc2)S1 ?
result: band A

More entries:
query: In plain terms, what class is NS(=O)(=O)C1=NN2C(=O)c3ccccc3NC(c3ccsc3)/N=C\2S1 (centres undefined) ?
result: band A

query: In plain terms, what class is CCOC(=O)C1C(=O)N=C2SC(S(N)(=O)=O)=NN2C1c1ccc(N(C)C)cc1 (centres undefined) ?
result: band B

###

Tested on: Escherichia coli
Experiment: Antibacterial activity against Escherichia coli at 5 mg/mL after 24 hrs
Assay type: functional
Settings: read-out: DIZ
Provide the reported zone of inhibition at 5000 µg/mL of each item.

Previously resolved entries follow.
query: Item CC1(C)S[C@@H]2[C@H](NC(=O)[C@H](N)c3ccccc3)C(=O)N2[C@H]1C(=O)O : provide zone of inhibition at 5000 µg/mL
result: 23 mm

query: Item Nc1c(/N=N/c2ccccc2)c(=O)nc2sc(S(N)(=O)=O)nn12 : provide zone of inhibition at 5000 µg/mL
result: 10 mm

query: Item N#CC1C(=O)N=C2SC(S(N)(=O)=O)=NN2C1c1ccc(Cl)cc1 (stereo unspecified) : provide zone of inhibition at 5000 µg/mL
result: < 2 mm

Field: zone of inhibition at 5000 µg/mL. Fill in for each record below.
1. COc1ccc(/N=N/c2c(N)n3nc(S(N)(=O)=O)sc3nc2=O)cc1
2. N=c1cc(N)n2nc(S(N)(=O)=O)sc2n1
3. CCOC(=O)C1C(=O)N=C2SC(S(N)(=O)=O)=NN2C1c1ccc(N(C)C)cc1 (stereo unspecified)
4. NS(=O)(=O)C1=NN2C(=NC(=O)/C2=C\c2ccc(Br)cc2)S1

result:
["5 mm", "< 2 mm", "< 2 mm", "< 2 mm"]

###

Provide the reported zone of inhibition at 5000 µg/mL of each item.
System: Aspergillus fumigatus
Experiment: Antifungal activity against Aspergillus fumigatus Af293 at 5 mg/mL after 48 hrs
Assay type: functional
Conditions: Af293, 48 h, read-out: DIZ

Previously resolved entries follow.
query: Item COc1ccc2c(c1)CCC1=C2N=C2SC(S(N)(=O)=O)=NN2C1c1ccc(Cl)cc1 (stereo not drawn) : provide zone of inhibition at 5000 µg/mL
result: < 2 mm

query: Item OC(Cn1cncn1)(Cn1cncn1)c1ccc(F)cc1F [FLUCONAZOLE] : provide zone of inhibition at 5000 µg/mL
result: < 2 mm

Now for the molecule whose zone of inhibition at 5000 µg/mL we want.
query: Item N=c1cc(N)n2nc(S(N)(=O)=O)sc2n1 : provide zone of inhibition at 5000 µg/mL
result: < 2 mm

The measurements presented in this section are drawn from ChEMBL document CHEMBL2375302.
